- measurementDescription: yeast display, Sf9 membrane polyspecificity reagent, FACS + sequencing; frameworks hold sequencing errors
measuredParameter: polyreactivity (PSR sort gate)

Previously resolved entries follow.
> print(dat)
                              querysequence               measuredparameter              reading
1  QVQLVESCGGLVQAGGSLRLSCAASGLIFWKYAMGWYRQAPGKERELVAAITSGGSTNYADSVKGRFTISRDNAKNTVYLQMNSLKPEDTAVYYCNARSWFEYYWGQGTQVTVSS  polyreactivity (PSR sort gate)  high polyreactivity
2  QVQLVESGGGLVQAGGSLRLSCAASGRNIYSNAMGWYRQAPGKERELVAAIRWRDGATYYADSVKGRFTISRDNAKNTVYLQMNSLKPEDTAVYYCAAVYWGEEYEYWGQGTQVTVSS  polyreactivity (PSR sort gate)   low polyreactivity
3  QVQLVESGGGLVQAGGSLRLSCAASGFTFRYNAMGWYRQAPGKERELVAGISWTSGSTYYADSVKGRFTISRDNAKNTVYLQMNSLKPEDTAVYYCAAYYRRDAALYGYWGQGTQVTVSS  polyreactivity (PSR sort gate)  high polyreactivity
4  QVQLVESGGGLVQAGGSLRLSCAASGITFADNAMGWYRQAPGKERELVARISRGGRTNYADSVKGRFTISRDNAKNTVYLQMNSLKPEDTAVYYCAADKSSYEYYWGQGTQVTVSS  polyreactivity (PSR sort gate)  high polyreactivity

Next up:
In: Quick one: polyreactivity (PSR sort gate) of QVLLVESGGVLVQAGGSLRLSCAASGSTFWSYAMGWYRQAPGKERELVAAISWSGDSTYYADSVKGRFTISRDNAKNTVYLQMNSLKPEDTAVYYCAADYVGGSYEYEYWGQGTQVTVSS ?
Out: low polyreactivity

* * *

- measurementDescription: yeast display, Sf9 membrane polyspecificity reagent, FACS + sequencing; frameworks hold sequencing errors
measuredParameter: polyreactivity (PSR sort gate)

querySequence	polyreactivity (PSR sort gate)
QVQLVESGGGLVQAGGSLRLSCAASGRIFRRNTMGWYRQAPGKEREVVAAITSSGGSTYADSVKGRFTISRDNAKNTVYLQMNSLKPEDTAVYYCATYVAYHRGYRTYDHWGQGTQVTVSS	low polyreactivity
QVQLVESGGGLVQAGGSLRLSCAASGSTLGGNAMGWYRRAPGKERELVAAITSSAGSTYYADSVKGRFTISRDNAKNTVYLQMNSLKPEDTAVYYCAADYSRDEYDYWGQGTQVTVSS	low polyreactivity
QVQLVESGGGLVQAGGSLRLSCAASGIILGAYDMGLYRQAPGKERELVAAINRNGDRTYYADSVKGRFTISRDNAKNTVYLQMKSLKPEDTAVYFCAAPRVVRTFDYWGQGTQVTVSS	high polyreactivity
QVQLVESGVGLVQAGGSLRLSCASSGITFPSYTMGWYRQAPGKERELVATIRNGGSTYYADSVKGRFTISRDNAKNTVYLQMNSLKPEDTAVYYCAAVPLWDYKFFYYLLYDYWGQGTQVTVSS	low polyreactivity
QGQLVESGGGLVQAGGSLRLSCAASGSTFGYNVMGWYRQATGKERELVAAINYSGVRTYYADSVKGRFTISRDNAKNTVYLQMNSLIPEDTAVYYCNATPTRAVGPYQYNYWGQGTQVTVSS	high polyreactivity

In: What measured polyreactivity (PSR sort gate) goes with QVQLVESGGGLVQAGGSLRLSCAASGSIFHPNAMGWYRQAPGKERELVAAISIGGDTYYADSVKGRFTISRDNAKNTVYLQMNSLKPEDTAVYYCAVTYVGHVYEYYYWGQGTQVTVSS ?
Out: low polyreactivity

In: Tell me the measured polyreactivity (PSR sort gate) of QVQLVESGGGLVQAGGSLRLSCAASGFTFEYNAMGWYRQAPGKERELVAVITYRGGSTYYADSVKGRFTISRDHAKNTVYLQMNSLKPEDTAVYYCAARLSSNYWGLKRWGYGYWGQGTQVTVSS , please.
Out: high polyreactivity

In: What measured polyreactivity (PSR sort gate) goes with QVQLVESGGGLVQAGCSLRLSCAASGSIFPFNAMGWYRQAPGKERELVAAITRSGGSTYYADSVKGRFTISRDNAKNTVYLQMNSLKPEDTAVYYCATDPEWPLPAYYYWGQGTQVTVSS ?
Out: low polyreactivity

* * *

- measurementDescription: yeast display, Sf9 membrane polyspecificity reagent, FACS + sequencing; frameworks hold sequencing errors
measuredParameter: polyreactivity (PSR sort gate)

querySequence	measuredParameter	reading
QVQLVESGGGLVQAGGSLRLSCAASGSIFGAYAMGWYRQAPGKERELVAVIRWGGGSTYADSVKGRFTISRDNAKNTVYLQMNRLKPEDTAVYYCNRDKSWADLYSHAYDYWGQGTQVTVSS	polyreactivity (PSR sort gate)	low polyreactivity
QVQLVESGGGLVQAGGSLRLSCAASGIIFSDYAMGWYRQAPGKERELVATITRSVRTSYADSVKGRFTISRDNAKNTVYLQMNSLKPEDTAVYYCNADFVGAVIAYDYLGQGTQVTVSS	polyreactivity (PSR sort gate)	low polyreactivity
QVQLVESGGGLVQAGGSLRLSCAASGSIFGSYAMGWYRQAPGKERALVAAMSRSGITYYADSVKGRFTISRDNAKNTVYLQMNSLKPEDTAVYYCNADVSWWGYHYDYWGQGTQVTVLS	polyreactivity (PSR sort gate)	high polyreactivity
QVQLVESGGGLVQAGGSLRLSCTASGRIFTRNAMGWYRQAPGKERELVASISRTGTSTYYADSVKGRFTISRDNEKNNVYLQMNSLKPEDTAVYYFNARRTSVRFDYWGQGTQVTVSS	polyreactivity (PSR sort gate)	high polyreactivity

Proceed to the following item.
In: Suppose we examine the sequence QVQLVESGGGLVQAGGSLRLSCAASGSTFTPYVMGWYRQAPGKERELVAAIRRRGGSTYYADSVKGRFTISRDNAKNSVYLQMNSLKPEDTAVYYCATDWSWLSLKFDYWGQGTQVTVSS ; what polyreactivity (PSR sort gate) value has been reported?
Out: high polyreactivity

* * *

- measurementDescription: yeast display, Sf9 membrane polyspecificity reagent, FACS + sequencing; frameworks hold sequencing errors
measuredParameter: polyreactivity (PSR sort gate)

querySequence	polyreactivity (PSR sort gate)
QVQLVESGGGLVQAGGSLRLSCAASGSTFGGNAMGWYRQAPGKERELVAAIDSGGGTNYADSVKGRFTISRDNAKNTVYLQMNSLKPEDTAVYYCNADWAVRSTQNSSSGHVYWGQGTQVTVSS	low polyreactivity
QVQLVESGGGLVQAGGRLRLSCAASGSTFLSNDMGWYRQAPGKERELVAAISQSGGNTYYADSVKGRFTISRDKAKNTVYLQMNSVKPEDTAVYYWAALDYWVQGTQVTVSS	low polyreactivity
QVQLVESGGGLVQAGGSLRLSCAASGSTFNIYAMGCYRQSPGKERELVAAIRSGGSTYYADSVKGRFTISRDNAKNTVYLQMNSLKPEDTAVYYCGAAVKRALDYWGQGTQVTVSS	high polyreactivity
QVQLVESGGGLVQAGGSLRLSCAASGITFSYNAMGWYRQAPGKERELVAAITWSGDSTYYADSVKGRFTISRDNAKNTVYLQMNSLKPEDTAVYYCNARYLRLRYPYTDEYNYWGQGTQVTVSS	low polyreactivity

Then there is this sequence:
In: What value of polyreactivity (PSR sort gate) has been reported for the following sequence? QVQLVESGGGLVQAGGSLRLSCAASGRIFFNYAMGWYRQAPGKQRELDAAITTNGGSTYYAVSVKGRFTISRDNAKNTVYLLMNSLKPEDTAVYYCNTRRKNFVKSSQVEYWGQGTQVTVSS
Out: high polyreactivity

* * *

- measurementDescription: yeast display, Sf9 membrane polyspecificity reagent, FACS + sequencing; frameworks hold sequencing errors

querySequence	polyreactivity (PSR sort gate)
QVQLVESGGGLVQAGGSLRLSCADSGSIFTSNGMGWYRHAPGKERELVAAITSGTSTYYADSVKGRFTISRDNAKNTVYLQMNSLKPEDTAVYYCAAGRWWVYRYARYYYWGQGTQVTVSS	high polyreactivity
QVQLVESGGGLVQAGGSLRLSCADSGRTFWGYSMGCYRQAPGKERELVAAITWNGGRTYYADSVKGRFTISRDNAKNTVYLQMNSLKPEDTAVYYCAAGYPRFGYDYWGQGTQVTVSS	high polyreactivity

* * *

- measurementDescription: yeast display, Sf9 membrane polyspecificity reagent, FACS + sequencing; frameworks hold sequencing errors
measuredParameter: polyreactivity (PSR sort gate)

Reference set (5 entries):
querySequence	polyreactivity (PSR sort gate)
QVQLVESGGGLVQAGCSLRLSCAASGRILFGYAMGWYRQAPGKERELVADITSTGSTNYADSVKGRFTISRDNAKNTVYLQMNSLKPEDTAVYYCNARRESYYQRYRVDYWGQGTQVTVSS	low polyreactivity
QVQLVESGGGLVQAGGSLRLSCAASGSTLLYYVMGWYRQAPGKERELVAAITGTGGRTYYADSVKGRFTISRDNAKNTVYLQMNSLKPEDTAVYYCAADGKFEYDYWGQGTQVTVSS	low polyreactivity
QVQLVESGGGLVQAGGSLRLSCAASGIILNYNAMGWYRQAPGKERELVAVIRTRGGSTYYADSVKGRFTISRDNAKNTVYLQMNSLKPEDTAVYYCAAKQIPWHRGGFGYDYWGQGSQVTVSS	low polyreactivity
QVQLVESGGGLVQAGGSLRLSCAASGITFVRYAMGWYRQAPGKERELVAAISSGGSTHYADSVKGRFTISRDNAKNTVYLQMYSLKPEDTAVYYCAAQWTESSLYRFGYLGQGTQVTVSS	high polyreactivity
QVQLVESGGGLVQAGGSLRLSCAASGFIFFQYAMGWYRQAPGKERELVAAISGSGVTTYYADSVKGRFTISRDNAKNTVYLQMKSLKPEDTPVYYCAARPSGRGYYLLGYWGQGTQVTVSS	low polyreactivity

In: Need polyreactivity (PSR sort gate), item QVQLVESGVGLVQAGGSLRLSCAASGIIFVTYTMAWYRQAHGKEREFVAAITRRGSRTYYADSVKGRFTISRDNAKNTVYLQMNSPKPEDTAVYYCNAVPRWSYVDEDSWGQGTQVTVSS
Out: high polyreactivity

In: What measured polyreactivity (PSR sort gate) goes with QVHLVESGGGLVQAGGSLRLSCAASGITFYRYAMGWYRQAPWKERELVAAITVGGRTYYADSVKGRFTISRDNAKNNVYLQMNSLKPEDTAVYYCNVRTLHSVRGYYYWGQGTQVTVSS ?
Out: high polyreactivity

In: Request the reported polyreactivity (PSR sort gate) associated with QVQLVESGGVLVQAGVSLRLSCAASGRTFFRYTMGWYRQAPGKERELVAAISRSDGSTYYADSVKGRFTISRDNAKNTVYLQMNSLKPEDTAVYYCAKSLPSGYYYWGQGTQVTVSS
Out: low polyreactivity

In: Which value of polyreactivity (PSR sort gate) has been reported for QVQLVESGGGLVQAGGSLRLSCAASGTTFAYYAMGWYRQAPGKERELVAVISVRGGSTYYADSVKGRFTISRDNAKNTVYLQMNSLKPEDTAVYYCAADTFAGYYYWGQGTQVTVSS in the records?
Out: high polyreactivity

In: Look at this sequence and give its reported polyreactivity (PSR sort gate). QVQLVESGGGLVQAGGSLRLSCAASGSIFSYNAMGGYRPAPGKARELVAAITLSDGGTYYADSVKGRFTISRDNAKNTVYLQMNSLKPEDTAVYYCATTYWLWITYSAYYYWGQGSQVTVSS
Out: low polyreactivity

In: Field request: polyreactivity (PSR sort gate) | item: QVQLVESGGGLVKAGGSLRLSCCASGFTFTGYAMGWYRQAPGKEWELVAAITRGGGSTYYADSVKGRFTISRDNAKNTVYLQMNSLKREDTAVYYCAAQGSRLIRISSPYYGHDYWGQGTQVTVSS
Out: low polyreactivity

In: # query: polyreactivity (PSR sort gate) of entry QVQLVESGGGLVQAGGSLRLSCAASGSIFTYYAMGWYRQAPGKERELVAAISLDGGSTYYADSVKGRFTISRDNAKNTVYLQMNSLKPEDTAVYYCAADYRFFPYTYLYDYWGQGTQVTVSS
Out: low polyreactivity
